# Tested on: Erythrocyte
# EXPERIMENTAL PROTOCOL: Antisickling activity in human homozygous sickle red blood cells at 0.5 mM incubated for 2 hrs under hypoxic condition relative to control
# Assay type: functional
Quick rule: inhibition at 500 µM of at least 20% means yes, below that means no.

Recorded results for 2 compounds are shown here.
compound=COc1ccc(C=O)c(OCc2ccccn2)c1 assigned_label=no
compound=COc1ccc(OCc2ccncc2)c(C=O)c1 assigned_label=yes

Could you verify whether the entry COc1cc(C=O)ccc1O [VANILLIN] shows inhibition at 500 µM of no less than 20%?
no

Could you verify whether the entry COc1ccc(OCc2cccnc2)c(C=O)c1 shows inhibition at 500 µM of no less than 20%?
no

Could you verify whether the entry COc1ccc(OCc2ccccn2)c(C=O)c1 shows inhibition at 500 µM of no less than 20%?
yes

* * *

# TESTED ON: Hemoglobin HbA (Homo sapiens) (UniProt P69905+P68871)
# Sequence (P68871 2-147 partner limits assumed): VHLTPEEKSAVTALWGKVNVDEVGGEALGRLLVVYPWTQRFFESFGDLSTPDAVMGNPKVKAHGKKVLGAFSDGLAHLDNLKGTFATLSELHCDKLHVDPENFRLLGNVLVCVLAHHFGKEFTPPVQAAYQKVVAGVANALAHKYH
# Sequence (P69905 2-142 limits assumed): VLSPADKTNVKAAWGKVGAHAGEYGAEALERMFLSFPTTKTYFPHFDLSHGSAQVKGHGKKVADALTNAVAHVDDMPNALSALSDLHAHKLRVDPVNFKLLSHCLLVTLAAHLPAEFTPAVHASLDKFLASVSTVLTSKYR
# EXPERIMENTAL PROTOCOL: Induction of R-state stabilization of Hb in human homozygous sickle red blood cells assessed as change in oxygen pressure at which hemolysates are 50% saturated with oxygen at 1 mM incubated under air for 1 hr followed by 2 hrs incubation under hypoxic condition by oxygen equilibrium curve analysis relative to control
Quick rule: Activity of at least 30% means Condition met, below that means Condition not met.

Recorded results for 4 compounds are shown here.
cpd_smiles=COc1ccc(OCc2ccncc2)c(C=O)c1 assigned_label="Condition met"
cpd_smiles=COc1cc(C=O)ccc1O assigned_label="Condition not met"
cpd_smiles=COc1ccc(OCc2cccnc2)c(C=O)c1 assigned_label="Condition met"
cpd_smiles=COc1ccc(C=O)c(OCc2ccccn2)c1 assigned_label="Condition not met"

Could you verify whether the entry COc1ccc(OCc2ccccn2)c(C=O)c1 shows Activity of no less than 30%?
Condition met

* * *

# TESTED ON: Hemoglobin HbA (Homo sapiens) (UniProt P69905+P68871)
# EXPERIMENTAL PROTOCOL: Inhibition of sickle hemoglobin polymerization in human homozygous sickle red blood cells assessed as formation of high oxygen affinity schiff-base adducts at 0.5 mM incubated under air for 1 hr followed by 2 hrs incubation under hypoxic condition by HPLC method relative to control
# Set-up: scale not given: the % may be the effect or the level left
PROPERTY: Activity (%)
Use % as the unit, but write only the number.

Sample records with Activity:
molecule="COc1cc(C=O)ccc1O [VANILLIN]" recorded_result=3.3
molecule=COc1ccc(C=O)c(OCc2ccccn2)c1 recorded_result=12
molecule=COc1ccc(OCc2ccccn2)c(C=O)c1 recorded_result=26.3

Let us examine a further case.
Activity of COc1ccc(OCc2ccncc2)c(C=O)c1 on Hemoglobin HbA (Homo sapiens) (UniProt P69905+P68871)?
32.8

* * *

# TESTED ON: Hemoglobin HbA (Homo sapiens) (UniProt P69905+P68871)
# EXPERIMENTAL PROTOCOL: Inhibition of sickle hemoglobin polymerization in human homozygous sickle red blood cells assessed as formation of high oxygen affinity schiff-base adducts at 1 mM incubated under air for 1 hr followed by 2 hrs incubation under hypoxic condition by HPLC method relative to control
# Parameters: scale not given: the % may be the effect or the level left
PROPERTY: Activity (%)
Use % as the unit, but write only the number.

Sample records with Activity:
cpd_smiles=COc1ccc(OCc2ccccn2)c(C=O)c1 recorded_result=55.3
cpd_smiles=COc1ccc(C=O)c(OCc2ccccn2)c1 recorded_result=24.8
cpd_smiles=COc1ccc(OCc2ccncc2)c(C=O)c1 recorded_result=58.7
cpd_smiles=COc1cc(C=O)ccc1O recorded_result=5.6

# input molecule: COc1ccc(OCc2cccnc2)c(C=O)c1 ; wanted: its Activity
79
